Biological target: T1, HLA-A*0201 loaded with the Carcinoembryonic antigen (CEA)-derived … peptide (biotin on the C-terminal biotinylation tag)
T1 construct: Soluble, biotinylated, immobilised on a streptavidin chip
Assay: Biacore SPR
pKd: −log10 of the molar value.
quantity measured: pKd

SEQ ID NO 11 (receptor, mutated soluble two domain ILT-2) MAGHLPKPTLWAEPGSVITMDQPVTLRCQGGQETQEYRLYREKKTAPWITRIPQELVKKGQFPIPSITWEHAGRYRCYYGSDTSQWSASSDPLELVVTGVYIKPTLSAQPSPVVNSGGNVTLQCDSQVAFDGFILCKEGEDEHPQCLNSQPHARGSSRAIFSVGPVSPSRRWWYRCYAYVDWFPYEWSLPSDLLELDVDG ... ≥ 6.00

Field: next binder
Record SEQ ID NO 35 (receptor, mutated soluble two domain ILT-2) MGHLPKPTLWAEPGSVITMDQPVTLRCQGGQETQEYRLYREKKTAPWITRIPQELVKKGQFPIPSITWEHAGRYRCYYGSDTAGRSESSDPLELVVTGVYIKPTLSAQPSPVVNSGGNVTLQCDSQVAFDGFILCKEGEDEHPQCLNSQPHARGSSRAIFSVGPVSPSRRWWYRCYAYMNWAPYEWSLPSDLLELDVDG . Reported pKd: ≥ 6.00
